Origin of measurements: patent US20180185504A1

- ASSAYED_SYSTEM: T1, hPRLR.mmh (soluble monomeric human PRLR) (human)
- T1 construct: soluble monomeric PRLR protein
- T1 chain: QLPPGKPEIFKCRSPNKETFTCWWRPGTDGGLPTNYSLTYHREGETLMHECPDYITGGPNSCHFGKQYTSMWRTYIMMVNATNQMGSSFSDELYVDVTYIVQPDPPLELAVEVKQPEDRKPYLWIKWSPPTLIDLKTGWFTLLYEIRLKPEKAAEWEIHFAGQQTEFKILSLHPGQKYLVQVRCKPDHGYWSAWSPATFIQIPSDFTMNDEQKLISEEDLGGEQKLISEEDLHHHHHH
- RUN_DESCRIPTION: SPR (Biacore), antibody capture, 37 C
- Procedure: Measurements were conducted on a T200 Biacore instrument. Kinetic association (kₐ) and dissociation (kd) rate constants were determined by processing and fitting the data to a 1:1 binding model using Scrubber 2.0 curve fitting software.
Overview of reported T 1/2 across a group of binders:
Quick note: give the figure in min, leave out the unit.

For reference, reported T 1/2 for H1H6785P (antibody, human IgG1, V domains shown, human IgG1 Fc (H1H)) VH: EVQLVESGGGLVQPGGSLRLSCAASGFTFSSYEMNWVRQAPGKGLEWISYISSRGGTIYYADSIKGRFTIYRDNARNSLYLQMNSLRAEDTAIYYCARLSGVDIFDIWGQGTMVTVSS VL: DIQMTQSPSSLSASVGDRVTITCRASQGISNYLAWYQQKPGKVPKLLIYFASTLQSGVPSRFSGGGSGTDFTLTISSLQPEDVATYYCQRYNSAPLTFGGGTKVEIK stands at 24

For reference, reported T 1/2 for H1H6959N2 (antibody, human IgG1, V domains shown, also called H2M6959N2) VH: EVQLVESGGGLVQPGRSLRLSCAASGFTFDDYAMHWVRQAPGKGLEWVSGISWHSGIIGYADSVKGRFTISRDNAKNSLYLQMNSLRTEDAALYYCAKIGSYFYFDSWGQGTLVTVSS VL: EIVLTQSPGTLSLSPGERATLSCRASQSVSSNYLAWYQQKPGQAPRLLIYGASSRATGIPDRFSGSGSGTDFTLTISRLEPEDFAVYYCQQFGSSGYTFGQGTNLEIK stands at 0.4

For reference, reported T 1/2 for H1H6765P (antibody, human IgG1, V domains shown, human IgG1 Fc (H1H)) VH: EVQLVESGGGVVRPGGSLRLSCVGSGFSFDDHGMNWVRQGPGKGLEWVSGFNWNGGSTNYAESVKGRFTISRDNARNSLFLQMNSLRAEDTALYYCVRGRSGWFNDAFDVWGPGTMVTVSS VL: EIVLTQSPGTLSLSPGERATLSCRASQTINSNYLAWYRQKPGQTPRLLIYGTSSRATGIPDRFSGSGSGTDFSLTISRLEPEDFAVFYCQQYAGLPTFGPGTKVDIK stands at 32
